target: steroid sulfatase (STS) (Homo sapiens, UniProt P08842); assay: STS inhibition in intact MCF-7 breast cancer cells; format: cell-based; parameters: endogenous in cells; host or cells: MCF-7 breast cancer cells; conditions: MCF7, read-out: % Inhibition of STS Activity in Intact MCF-7 Breast Cancer Cells at 10 μM
value kind: inhibition at 10 µM (%)

INSERT INTO assay_data (compound, tested_on, value_observed) VALUES
  ('Cc1c(Cc2ccccc2)c(=O)oc2cc(OS(N)(=O)=O)ccc12 [compound 41, 3-Benzyl-4-methylcoumarin-7-O-sulfamate]', 'steroid sulfatase (STS) (Homo sapiens, UniProt P08842)', 97),
  ('NS(=O)(=O)Oc1ccc2c(CCl)cc(=O)oc2c1 [compound 21, 4-Chloromethylcoumarin-7-O-sulfamate]', 'steroid sulfatase (STS) (Homo sapiens, UniProt P08842)', 92),
  ('Cc1c(CCCc2ccccc2)c(=O)oc2cc(OS(N)(=O)=O)ccc12', 'steroid sulfatase (STS) (Homo sapiens, UniProt P08842)', 100),
  ('CCCCCCCc1cc(=O)oc2cc(OS(N)(=O)=O)ccc12 [compound 12, 4-Heptylcoumarin-7-O-sulfamate]', 'steroid sulfatase (STS) (Homo sapiens, UniProt P08842)', 99),
  ('NS(=O)(=O)Oc1ccc2c(CCc3ccccc3)cc(=O)oc2c1 [compound 24, 4-(2-Phenylethyl)coumarin-7-O-sulfamate]', 'steroid sulfatase (STS) (Homo sapiens, UniProt P08842)', 98),
  ('CCCCCCCCCCCCc1cc(=O)oc2cc(OS(N)(=O)=O)ccc12 [compound 17, 4-Dodecylcoumarin-7-O-sulfamate]', 'steroid sulfatase (STS) (Homo sapiens, UniProt P08842)', 98),
  ('CCCCCCCCCCc1cc(=O)oc2cc(OS(N)(=O)=O)ccc12 [compound 15, 4-Decylcoumarin-7-O-sulfamate]', 'steroid sulfatase (STS) (Homo sapiens, UniProt P08842)', 100);

---

target: steroid sulfatase (STS) (Homo sapiens, UniProt P08842); assay: STS inhibition in placental microsomes; type: biochemical; set-up: a placental microsomal preparation from a sulfatase-positive human placenta from a normal term pregnancy; from tissue; host or cells: human placenta (microsomal preparation); details: 20 μM E1S
Classes are defined on IC50 with ranges one (below 0.05 µM), two (0.05 µM to below 0.1 µM), three (0.1 µM or more)

INSERT INTO measurements (compound, tested_on, cat) VALUES
  ('CCCCCCCCCCCCCCc1c(C)c2ccc(OS(N)(=O)=O)cc2oc1=O [compound 37]', 'steroid sulfatase (STS) (Homo sapiens, UniProt P08842)', 'three'),
  ('CCCCCCCCCCCCc1cc(=O)oc2cc(OS(N)(=O)=O)ccc12 [compound 17, 4-Dodecylcoumarin-7-O-sulfamate]', 'steroid sulfatase (STS) (Homo sapiens, UniProt P08842)', 'one'),
  ('CCCCCCCCCCCCCc1cc(=O)oc2cc(OS(N)(=O)=O)ccc12 [compound 18, 4-Tridecylcoumarin-7-O-sulfamate]', 'steroid sulfatase (STS) (Homo sapiens, UniProt P08842)', 'two'),
  ('CCCCCCc1cc(=O)oc2cc(OS(N)(=O)=O)ccc12 [compound 11, 4-Hexylcoumarin-7-O-sulfamate]', 'steroid sulfatase (STS) (Homo sapiens, UniProt P08842)', 'two'),
  ('CCCCCCCCc1cc(=O)oc2cc(OS(N)(=O)=O)ccc12 [compound 13, 4-Octylcoumarin-7-O-sulfamate]', 'steroid sulfatase (STS) (Homo sapiens, UniProt P08842)', 'two'),
  ('Cc1c(-c2ccccc2)c(=O)oc2cc(OS(N)(=O)=O)ccc12 [compound 40, 4-Methyl-3-phenylcoumarin-7-O-sulfamate]', 'steroid sulfatase (STS) (Homo sapiens, UniProt P08842)', 'two'),
  ('NS(=O)(=O)Oc1ccc2c(C3CCCCC3)cc(=O)oc2c1 [compound 26, 4-Cyclohexylcoumarin-7-O-sulfamate]', 'steroid sulfatase (STS) (Homo sapiens, UniProt P08842)', 'one'),
  ('CCc1ccc(-c2cc(=O)oc3cc(OS(N)(=O)=O)ccc23)cc1 [compound 25, 4-(4-Ethylphenyl)coumarin-7-O-sulfamate]', 'steroid sulfatase (STS) (Homo sapiens, UniProt P08842)', 'three'),
  ('NS(=O)(=O)Oc1ccc2c(Cc3ccccc3)cc(=O)oc2c1 [compound 23, 4-Benzylcoumarin-7-O-sulfamate]', 'steroid sulfatase (STS) (Homo sapiens, UniProt P08842)', 'two'),
  ('CCCCCCCc1cc(=O)oc2cc(OS(N)(=O)=O)ccc12 [compound 12, 4-Heptylcoumarin-7-O-sulfamate]', 'steroid sulfatase (STS) (Homo sapiens, UniProt P08842)', 'two'),
  ('Cc1c(CCc2ccccc2)c(=O)oc2cc(OS(N)(=O)=O)ccc12 [compound 42]', 'steroid sulfatase (STS) (Homo sapiens, UniProt P08842)', 'one'),
  ('CCCCCCCCCCCc1c(C)c2ccc(OS(N)(=O)=O)cc2oc1=O [compound 34, 4-Methyl-3-undecylcoumarin-7-O-sulfamate]', 'steroid sulfatase (STS) (Homo sapiens, UniProt P08842)', 'three'),
  ('NS(=O)(=O)Oc1ccc2c(CCl)cc(=O)oc2c1 [compound 21, 4-Chloromethylcoumarin-7-O-sulfamate]', 'steroid sulfatase (STS) (Homo sapiens, UniProt P08842)', 'three');

---

target: steroid sulfatase (STS) (Homo sapiens); assay: STS inhibition in placental microsomes; assay type: biochemical; set-up: a placental microsomal preparation from a sulfatase-positive human placenta from a normal term pregnancy; from tissue; host or cells: human placenta (microsomal preparation); details: 1 μM inhibitor; 20 μM E1S
Parameter inhibition at 1 µM: see the listing below.
value kind: inhibition at 1 µM (%)

INSERT INTO measurements (compound, value_kind, value_observed) VALUES
  ('CCCCCCCc1c(C)c2ccc(OS(N)(=O)=O)cc2oc1=O [compound 30, 3-Heptyl-4-methylcoumarin-7-O-sulfamate]', 'inhibition at 1 µM', 97),
  ('CCCCCCCCCCCCc1cc(=O)oc2cc(OS(N)(=O)=O)ccc12 [compound 17, 4-Dodecylcoumarin-7-O-sulfamate]', 'inhibition at 1 µM', 89),
  ('NS(=O)(=O)Oc1ccc2c(CC34CC5CC(CC(C5)C3)C4)cc(=O)oc2c1', 'inhibition at 1 µM', 96),
  ('CC(C)Cc1cc(=O)oc2cc(OS(N)(=O)=O)ccc12', 'inhibition at 1 µM', 97),
  ('NS(=O)(=O)Oc1ccc2c(CCc3ccccc3)cc(=O)oc2c1 [compound 24, 4-(2-Phenylethyl)coumarin-7-O-sulfamate]', 'inhibition at 1 µM', 93),
  ('Cc1c(CC2CCCCC2)c(=O)oc2cc(OS(N)(=O)=O)ccc12', 'inhibition at 1 µM', 99),
  ('CCCCCCCCCCCCCc1cc(=O)oc2cc(OS(N)(=O)=O)ccc12 [compound 18, 4-Tridecylcoumarin-7-O-sulfamate]', 'inhibition at 1 µM', 80);

---

target: steroid sulfatase (STS) (Homo sapiens); assay: STS inhibition in intact MCF-7 breast cancer cells; format: cell-based; parameters: endogenous in cells; host or cells: MCF-7 breast cancer cells; settings: MCF7, read-out: % Inhibition of STS Activity in Intact MCF-7 Breast Cancer Cells at 0.1 μM
Label met when inhibition at 0.1 µM is at or above 80%; anything below gets not met.

INSERT INTO measurements (compound, cat) VALUES
  ('CCCCc1cc(=O)oc2cc(OS(N)(=O)=O)ccc12 [compound 9, 4-Butylcoumarin-7-O-sulfamate]', 'met'),
  ('NS(=O)(=O)Oc1ccc2c(-c3ccccc3)cc(=O)oc2c1 [compound 22, 4-Phenylcoumarin-7-O-sulfamate]', 'not met'),
  ('Cc1c(Cc2ccccc2)c(=O)oc2cc(OS(N)(=O)=O)ccc12 [compound 41, 3-Benzyl-4-methylcoumarin-7-O-sulfamate]', 'met'),
  ('NS(=O)(=O)Oc1ccc2c(CCl)cc(=O)oc2c1 [compound 21, 4-Chloromethylcoumarin-7-O-sulfamate]', 'not met'),
  ('CCCCCCc1c(C)c2ccc(OS(N)(=O)=O)cc2oc1=O [compound 29, 3-Hexyl-4-methylcoumarin-7-O-sulfamate]', 'met');

---

Listed here are compounds together with their documented IC50.
Biological target: steroid sulfatase (STS) (Homo sapiens, UniProt P08842)
Sequence (P08842 22-583): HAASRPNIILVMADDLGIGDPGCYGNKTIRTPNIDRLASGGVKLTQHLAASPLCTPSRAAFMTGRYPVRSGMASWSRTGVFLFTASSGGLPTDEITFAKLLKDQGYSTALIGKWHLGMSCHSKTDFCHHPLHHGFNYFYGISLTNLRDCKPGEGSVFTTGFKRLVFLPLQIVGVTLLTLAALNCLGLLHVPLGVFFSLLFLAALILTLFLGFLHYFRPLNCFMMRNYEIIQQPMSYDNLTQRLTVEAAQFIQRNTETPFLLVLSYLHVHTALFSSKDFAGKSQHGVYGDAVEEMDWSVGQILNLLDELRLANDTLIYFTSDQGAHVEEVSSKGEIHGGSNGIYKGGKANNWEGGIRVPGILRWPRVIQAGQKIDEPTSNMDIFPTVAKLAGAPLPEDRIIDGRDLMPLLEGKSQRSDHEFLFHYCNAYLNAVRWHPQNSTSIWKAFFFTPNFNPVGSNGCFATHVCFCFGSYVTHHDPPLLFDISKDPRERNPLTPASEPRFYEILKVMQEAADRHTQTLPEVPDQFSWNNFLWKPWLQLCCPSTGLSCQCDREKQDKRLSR
Assay: STS inhibition in placental microsomes
Format: biochemical
Set-up: a placental microsomal preparation from a sulfatase-positive human placenta from a normal term pregnancy; from tissue; host or cells: human placenta (microsomal preparation)
Conditions: 20 μM E1S
value kind: IC50 (µM)

INSERT INTO assay_data (compound, value_kind, value_observed) VALUES
  ('CCCCCCCCCc1cc(=O)oc2cc(OS(N)(=O)=O)ccc12 [compound 14, 4-Nonylcoumarin-7-O-sulfamate]', 'IC50', 0.06),
  ('NS(=O)(=O)Oc1ccc2c(CCc3ccccc3)cc(=O)oc2c1 [compound 24, 4-(2-Phenylethyl)coumarin-7-O-sulfamate]', 'IC50', 0.082),
  ('CCCCCCCCCCc1c(C)c2ccc(OS(N)(=O)=O)cc2oc1=O [compound 33, 3-Decyl-4-methylcoumarin-7-O-sulfamate]', 'IC50', 0.25);
